These entries and their values trace back to patent US20240409617A1.

target: B.1.1.7 Spike (SARS-CoV2)
measured-metric: Kd (pM)
# number only, unit pM dropped from output

The measured Kd associated with Ab_13 scFv-Fc (scFv, V domains shown) VH: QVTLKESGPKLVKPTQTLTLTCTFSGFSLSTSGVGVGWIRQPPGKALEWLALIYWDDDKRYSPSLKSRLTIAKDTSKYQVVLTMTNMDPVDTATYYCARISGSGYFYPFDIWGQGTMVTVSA VL: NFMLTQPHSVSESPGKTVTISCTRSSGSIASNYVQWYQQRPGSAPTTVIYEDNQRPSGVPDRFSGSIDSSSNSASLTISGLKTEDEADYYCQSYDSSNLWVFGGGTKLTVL reads 1.91

Briefly, Kd measured for Ab_17 scFv-Fc (scFv, V domains shown) VH: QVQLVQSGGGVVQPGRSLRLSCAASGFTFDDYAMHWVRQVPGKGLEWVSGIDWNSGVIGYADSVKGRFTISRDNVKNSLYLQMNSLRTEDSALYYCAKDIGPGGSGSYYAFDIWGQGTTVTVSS VL: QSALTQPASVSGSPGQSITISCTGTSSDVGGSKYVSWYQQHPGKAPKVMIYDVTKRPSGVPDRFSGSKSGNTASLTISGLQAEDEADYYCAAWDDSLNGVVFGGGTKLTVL : 1.85

Quick note, Kd for Ab_26 scFv-Fc (scFv, V domains shown) VH: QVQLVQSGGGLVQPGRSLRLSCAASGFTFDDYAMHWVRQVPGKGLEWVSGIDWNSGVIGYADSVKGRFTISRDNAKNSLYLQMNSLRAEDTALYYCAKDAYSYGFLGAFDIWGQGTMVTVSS VL: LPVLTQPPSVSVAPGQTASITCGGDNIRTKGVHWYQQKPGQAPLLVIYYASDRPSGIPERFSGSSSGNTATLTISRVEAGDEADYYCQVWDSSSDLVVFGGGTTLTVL landed at 1.37

Just so you know, measured Kd for Ab_16 scFv-Fc (scFv, V domains shown) VH: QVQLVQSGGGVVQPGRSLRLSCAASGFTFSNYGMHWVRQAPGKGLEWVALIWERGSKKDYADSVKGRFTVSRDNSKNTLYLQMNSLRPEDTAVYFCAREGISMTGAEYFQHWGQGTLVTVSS VL: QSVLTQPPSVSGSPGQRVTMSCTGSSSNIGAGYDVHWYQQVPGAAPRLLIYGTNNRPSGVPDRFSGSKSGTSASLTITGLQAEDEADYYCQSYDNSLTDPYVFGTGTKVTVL came out at 2.36
